Entries annotated with measured %Inh
Tested on: STK16;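 also: KINOMEscan kinase panel screen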
Conditions: concentration: 1 μM,replicates: in singlicate; n = 1
Parameter: %Inh

- Cn1ccc2ncnc(Oc3ccc(NC(=O)Nc4cccc(C(F)(F)F)c4)c(F)c3)c21: 0%
- Cn1ccc2ncnc(Oc3ccc(NC(=O)Nc4cncc(C(F)(F)F)c4)c(Cl)c3)c21: 4%
- CC(C)c1nc(-c2cccc(NS(=O)(=O)c3ccccc3)c2)c(-c2ccnc(Nc3ccc4c(c3)CN(C)CC4)n2)s1 [GSK1649598]: 28%
- COc1cc2nccc(Nc3ccc(Oc4ccccc4)cc3)c2cc1OC.Cl [GI261656]: 0%
- Cn1cc(-c2cccc3c(N)c(C(N)=O)nnc23)cn1: 11%
- Cn1ccc2ncnc(Oc3ccc(NC(=O)Nc4cccc(C(F)(F)F)c4)c(Cl)c3)c21: 4%
- C[C@@H](Oc1cc(-n2cnc3cc(-c4cnn(C)c4)ccc32)sc1C(N)=O)c1ccccc1Cl [GSK580432]: 51%
- Cc1cccc2c(-c3ccncc3)c(-c3ccc(F)cc3)nn12.Cl [GW461487]: 4%
- Cc1ccc2c(-c3ccnc(Nc4ccc(C(F)(F)F)cc4)n3)cnn2n1 [GW819776]: 48%
- CC(C)S(=O)(=O)N1CCN(Cc2ccc3c(c2)nc(NC(=O)c2ccsc2)n3C[C@H](O)c2ccccc2)CC1 [GW635815]: 83%
- CN(c1ccc2c(c1)nc(NCc1ccc(F)cc1)n2C)c1ccnc(Nc2ccc(CS(C)(=O)=O)cc2)n1.Cl [GW813244]: 46%
- COc1cc2c(Nc3ccc(NC(=O)c4ccccc4)cc3)ncnc2cc1OCCCN1CCOCC1 [GSK301329]: 12%
- Cn1ccc2ncnc(Oc3ccc(NC(=O)Nc4cnn(C(C)(C)C)c4)c(Cl)c3)c21: 16%
- O=C(Nc1ccccc1)c1cccc(Oc2ccc3nccn3n2)c1: 0%
- CNC(=O)c1ccccc1Nc1nc(Nc2cccc(CS(C)(=O)=O)c2)ncc1C.O=CO [GSK1520489]: 99.3%
- CN(c1cccc(CNc2nc(Nc3ccc4c(c3)CC(=O)N4)ncc2C(F)(F)F)c1)S(C)(=O)=O: 90.2%
- c1ccc(Oc2ccc(Nc3ccnc4ccc(-c5ccccn5)cc34)cc2)cc1 [GW407034]: 0%

Where do the numbers come from? From paper PMC5540273.
